- TARGET OR TEST SYSTEM: hP2X2/3H (Homo sapiens, UniProt P56373+Q9UBL9)
- Construct: expressed in transfected cells; host or cells: e.g. HEK293 or 1321N1
- Sequence (Q9UBL9 1-471): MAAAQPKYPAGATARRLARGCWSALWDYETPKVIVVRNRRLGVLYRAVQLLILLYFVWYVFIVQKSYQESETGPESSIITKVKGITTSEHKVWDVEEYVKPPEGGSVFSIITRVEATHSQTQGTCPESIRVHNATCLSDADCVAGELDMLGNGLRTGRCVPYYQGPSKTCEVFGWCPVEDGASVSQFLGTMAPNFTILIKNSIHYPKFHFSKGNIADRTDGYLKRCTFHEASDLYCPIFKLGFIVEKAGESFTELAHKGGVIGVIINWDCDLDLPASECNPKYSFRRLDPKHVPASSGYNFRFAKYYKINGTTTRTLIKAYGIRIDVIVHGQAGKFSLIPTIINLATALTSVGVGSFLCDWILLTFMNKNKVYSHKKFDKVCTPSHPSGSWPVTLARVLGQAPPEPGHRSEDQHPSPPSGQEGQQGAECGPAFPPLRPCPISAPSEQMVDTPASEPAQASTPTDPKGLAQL
- Sequence (P56373 1-397): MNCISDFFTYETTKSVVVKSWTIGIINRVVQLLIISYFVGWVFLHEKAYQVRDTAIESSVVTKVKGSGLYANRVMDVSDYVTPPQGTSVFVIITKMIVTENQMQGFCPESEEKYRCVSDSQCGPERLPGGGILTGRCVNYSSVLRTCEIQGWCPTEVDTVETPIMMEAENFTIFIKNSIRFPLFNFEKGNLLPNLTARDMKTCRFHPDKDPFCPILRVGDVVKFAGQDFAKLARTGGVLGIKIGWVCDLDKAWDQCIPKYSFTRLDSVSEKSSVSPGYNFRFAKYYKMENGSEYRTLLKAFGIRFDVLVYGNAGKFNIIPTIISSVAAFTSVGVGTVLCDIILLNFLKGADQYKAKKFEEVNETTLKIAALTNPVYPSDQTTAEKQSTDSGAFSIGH
- EXPERIMENTAL DETAILS: Calcium uptake assay (P2X antagonist assay), P2X2/3 heteromer
- Format: cell-based
- EXPERIMENTAL CONDITIONS: calcium uptake assay, hP2X2/3H; read-out: IC50 hP2X2/3H (nM), Ca Influx
PARAMETER MEASURED: IC50

INSERT INTO assay_data (compound, target_or_test_system, parameter_measured, result) VALUES
  ('Cc1ccc(-c2cc(C(=O)NCc3ccc(Cl)nc3)cc(C(=O)N3CCCC3)c2)cc1 [Compound 91]', 'hP2X2/3H (Homo sapiens, UniProt P56373+Q9UBL9)', 'IC50', '< 100 nM'),
  ('Cc1ccc(-c2cc(C(=O)NCc3ccc(Cl)nc3)cc(C(=O)N3CC(O)C3)c2)cc1 [Compound 131]', 'hP2X2/3H (Homo sapiens, UniProt P56373+Q9UBL9)', 'IC50', '< 100 nM'),
  ('Cc1ccc(-c2cc(C(=O)NCc3ccc(C)nc3)cc(C(=O)N(C)c3ccccn3)c2)cc1 [Compound 164]', 'hP2X2/3H (Homo sapiens, UniProt P56373+Q9UBL9)', 'IC50', '100 to 500 nM'),
  ('Cc1ccc(-c2cc(C(=O)N[C@H](C)c3ccc(C)nc3)cc(C(=O)N3CCCC3)c2)cc1 [Compound 176]', 'hP2X2/3H (Homo sapiens, UniProt P56373+Q9UBL9)', 'IC50', '< 100 nM'),
  ('Cc1ncc(CNC(=O)c2cc(C(=O)N3CCCC3)cc(-c3ccc(F)cn3)c2)cn1 [Compound 99]', 'hP2X2/3H (Homo sapiens, UniProt P56373+Q9UBL9)', 'IC50', '> 1000 nM'),
  ('CCOC(=O)c1cc(C(=O)NCc2cnc(C)nc2)cc(-c2ccc(C)cc2)c1 [Compound 15]', 'hP2X2/3H (Homo sapiens, UniProt P56373+Q9UBL9)', 'IC50', '< 100 nM'),
  ('Cc1ccc(-c2cc(C(=O)N[C@H](C)c3ccc(C(F)(F)F)nc3)cc(S(C)(=O)=O)c2)cc1 [Compound 35]', 'hP2X2/3H (Homo sapiens, UniProt P56373+Q9UBL9)', 'IC50', '< 100 nM'),
  ('Cc1ccc(-c2cc(C(=O)NCc3ccc(C)nc3)cc(C(=O)N3CC(O)C3)c2)cc1 [Compound 132]', 'hP2X2/3H (Homo sapiens, UniProt P56373+Q9UBL9)', 'IC50', '< 100 nM');
